From: patent US20240024302A1

assay: Rat PK, single oral gavage; type: in vivo; conditions: rat, in vivo, single dose 0.1 mg/kg
Exercise: for every item that follows, state its recorded log10 of Cmax.
Values are log10 of Cmax in nM.

> print(dat)
                  compound.structure.string  observed.value
1  CC(C)C(=O)N1CCC(CC(=O)Nc2ccc(OC(F)(F)F)c(F)c2)CC1            1.23
2  O=C(Nc1ccc(OC(F)(F)F)c(F)c1)NC1CCN(C(=O)C2CCOCC2)CC1            2.01
3  O=C(Nc1ccc(OC(F)(F)F)c(F)c1)NC1CCN(C(=O)[C@@H]2CCOC2)CC1            1.92
4  O=C(Nc1ccc(C(F)(F)F)cc1)NC1CCN(C(=O)c2ccoc2)CC1            2.49
5  O=C(Nc1ccc(OC(F)(F)F)c(F)c1)NC1CCN(C(=O)C2(C(F)(F)F)CC2)CC1            1.61
6  CC(C)C(=O)N1CCC(NC(=O)Nc2ccc(OC(F)(F)F)c(F)c2)CC1            1.92

Dear reader, for each entry below, please note its log10 of Cmax.
1. O=C(Nc1ccc(C(F)(F)F)cc1)NC1CCN(C(=O)C2CCOCC2)CC1
2. O=C(Nc1ccc(OC(F)(F)F)c(F)c1)NC1CCN(C(=O)N2CCOCC2)CC1
3. CC(C)C(=O)N1CCC(NC(=O)Nc2ccc(C(F)(F)F)c(F)c2)CC1

1: 1.73; 2: 1.60; 3: 1.58
